- TESTED SYSTEM: T1, Recombinant Human DLL4 (delta-like protein 4) (human, UniProt Q9NR61 27-524)
- T1 construct: also called rHuman DLL4; Delta-like 4
- ASSAY: ELISA on coated DLL4, Fab at 3.125 nM (2-fold serial dilution)
MEASURED METRIC: ELISA signal
Enter a number only.

# BINDER, ELISA signal
data = [
    ("Fab VH5-51_IGHD5-18*01>3_IGHJ4*01 G100K/G104T (KT) & V3-4_IGLJ1*01 R56A (Fab, V domains shown, Fab; also called H:KT & L:R56A) VH: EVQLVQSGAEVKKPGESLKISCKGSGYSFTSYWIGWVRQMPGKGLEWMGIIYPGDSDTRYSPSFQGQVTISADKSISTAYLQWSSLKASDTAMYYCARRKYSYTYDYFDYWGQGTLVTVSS VL: QTVVTQEPSFSVSPGGTVTLTCGLSSGSVSTSYYPSWYQQTPGQAPRTLIYSTNTASSGVPDRFSGSILGNKAALTITGAQADDESDYYCVLYMGSGISYVFGTGTKVTVL", 0.213),
]

Then there is this binder:
Query: Which measured ELISA signal value corresponds to Fab VH5-51_IGHD5-18*01>3_IGHJ4*01 G100K/G104T G35V & V3-4_IGLJ1*01 (Fab, V domains shown, Fab; also called H:KT G35V & L:parent) VH: EVQLVQSGAEVKKPGESLKISCKGSGYSFTSYWIVWVRQMPGKGLEWMGIIYPGDSDTRYSPSFQGQVTISADKSISTAYLQWSSLKASDTAMYYCARRKYSYTYDYFDYWGQGTLVTVSS VL: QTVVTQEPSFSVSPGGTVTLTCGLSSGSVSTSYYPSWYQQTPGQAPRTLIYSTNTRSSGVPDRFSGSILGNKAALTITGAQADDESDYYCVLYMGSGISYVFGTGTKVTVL ?
Response: 0.251

Ref: patent US20120316071A1
